// endpoint Ki / system Leukotriene D4 (LTD4) receptor (Cavia porcellus, UniProt Q2NNR5)
readout.label: Ki (nM)

>>> df
                                   compound  unit_text  measured_result
0  O=C([O-])CCSC1c2ccccc2C=Cc2ccc(/C=C/c3ccc4cc(F)c(F)cc4n3)cc21.[Na+] (centres unmarked)         nM              0.2
1  O=C([O-])CCSC1c2ccccc2C=Cc2ccc(/C=C/c3ccc4cc(F)c(Cl)cc4n3)cc21.[Na+] (centres unmarked)         nM              0.2
2  O=C(O)COC1c2cc(/C=C/c3ccc4cc(F)c(Cl)cc4n3)ccc2C=Cc2c(F)cccc21 (centres unmarked)         nM            0.158
3  O=C(O)CCSC1c2cc(/C=C/c3ccc4c(n3)CCCC4)ccc2C=Cc2c1cccc2C(F)(F)F (centres unmarked)         nM              0.2
4  O=C(O)CCOC1c2ccccc2C=Cc2ccc(/C=C/c3ccc4cc(F)c(Cl)cc4n3)cc21 (centres unmarked)         nM              0.2

----------
In this section we review reported melting point values for a set of molecules.
readout.label: melting point

>>> df
                                   molecule  measured_result
0  O=C([O-])CCSC1c2ccccc2C=Cc2ccc(/C=C/c3ccc4cc(F)c(Cl)cc4n3)cc21.[Na+] (centres unmarked) [Example Compound 7]    228 to 238 °C
1  O=C([O-])CCSC1c2ccccc2C=Cc2ccc(/C=C/c3ccc4cc(F)c(F)cc4n3)cc21.[Na+] (centres unmarked) [Example Compound 4]    213 to 216 °C
2  O=C([O-])CCSC1c2ccccc2C=Cc2ccc(/C=C/c3ccc4ccc(Cl)cc4n3)cc21.[Na+] (centres unmarked) [Example Compound 8]    193 to 203 °C
3  O=C([O-])COC1c2ccccc2C=Cc2ccc(/C=C/c3ccc4cc(F)c(F)cc4n3)cc21.[Na+] (centres unmarked) [Example Compound 3]    213 to 227 °C
4  C[C@H](CSC1c2ccccc2C=Cc2ccc(/C=C/c3ccc4cc(F)c(F)cc4n3)cc21)C(=O)[O-].[Na+] (some centres unmarked)    240 to 249 °C

Origin of the recorded values: patent US7309718B2
